Reported values of mean fluorescence intensity for individual entries
# SYSTEM_UNDER_TEST: T1, human CD47, full length, on transfected cells (human, UniProt Q08722 19-323)
# T1 construct: whole, on cells; also called CHOK1-hCD47
# METHOD_DESCRIPTION: FACS CHOK1-hCD47; Ab 0 nM (background)
READOUT_TYPE: mean fluorescence intensity

1. 95E2D10 (antibody, V domains shown, Murine hybridoma antibody purified on protein G) VH: QIQLQQSGPELVKPGASMKISCKASGYPFTDYYIHWVKQKPGQGLEWIGWIYPGSGNNKYNEKFKGKATLTVDTSPSTVYMQLSSLTSEDTAVYFCARRAGNYFDYWGQGTTLTVSS VL: NIVMTQSPKSMSRSVGERVTLSCRASENVRTYVFWYQQKPGLSPKLLIYGASNRYIGVPDRFTGSGSATDFTLTISSVQAEDLADYHCGQSYSYPLTFGAGTKLELK    23.3
2. 132D1E5 (antibody, V domains shown, Murine hybridoma antibody purified on protein G) VH: QVQLQQPGAELVRPGSSVKLSCKASGYTFTNNWMHWVKQRPLQGLEWIGNIDPSDSETHYNQKFKDKATLTVDKSSTTAYIQLSSLTSEDSAVYYCARWRGGGRGAMDYWGQGTSVTVSS VL: DVQITQSPSYLAASPGETITINCRTSKNISKFLAWYQEKPGKTNKLLIYSGSTLQSGIPSRFSGSGSGTDFTLTISNLEPEDFAMYYCQQHNEYPWTFGRGTKLEIK    18.1
3. 20H4G5 (antibody, V domains shown, Murine hybridoma antibody purified on protein G) VH: QVQLQQPGAELVRPGSSVRLSCVTSGYTFTSHWMHWVKQGPIKGLEWIGNIDPSDSETHYNQKFKDKATLTVDKSSSTAYMQLSRLTSDDSAVYYCARWRHLGIGAMDYWGQGTSVIVSS VL: DVQITQSPSYLAASPGETITINCRASKNISKFLAWYQAKPGKSNNLLIYSGSTLQSGIPSRFSGSGSGTDFTLTISRLEPEDFAMYYCQQHNEYPWTFGGGTKLEIK    23.1
4. 25E3B5 (antibody, V domains shown, Murine hybridoma antibody purified on protein G) VH: QVQLQQPGTALVRPGSSVKLSCKASGYTFTSYWMHWVRQRPIKGLEWIGNIDPSDSETHYNQRFKDKVTLTVDKSSNTAYMQLSSLTSEDSAVYYCARWKYHGIGAMDYWGQGTSVTVSS VL: DVQITQSPSYLAASPGETVTISCRTNRNISKFLAWYQEKPGKTNKLLIYSGSTLHSGIPSRFSGSGSGTDFTLTISRLEPEDFAMYYCQQHNEYPWSFGGGTKLEIK    22.9
5. 51E2F11 (antibody, V domains shown, Murine hybridoma antibody purified on protein G) VH: EVQLQQSGAELVKPGASVKLSCTASGFNIKDHYIHWMNQRTEQGLEWIGRIDPDDGETRYAPKFRGKATLTADTSSNTAYLQFSSLTSEDTAVYHCTRATTITRDWYFDVWGTGTTVTVSS VL: DIVMTQSQKFMSTSVGDRVSITCKASQNVRTSVAWYQQKPGQSPKALIYLASNRHTGIPDRFTGSGSGTDFTLTIRNVQSEDLADYFCLQHWDYPLTFGAGTKLELK    22.6
6. 54G8G6 (antibody, V domains shown, Murine hybridoma antibody purified on protein G) VH: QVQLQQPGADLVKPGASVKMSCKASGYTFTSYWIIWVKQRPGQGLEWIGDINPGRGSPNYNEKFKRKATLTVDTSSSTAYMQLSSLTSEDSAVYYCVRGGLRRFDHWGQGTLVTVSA VL: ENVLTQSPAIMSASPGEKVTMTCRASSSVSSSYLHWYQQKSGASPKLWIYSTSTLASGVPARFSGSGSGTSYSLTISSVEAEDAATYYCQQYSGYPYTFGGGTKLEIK    23.1
7. 4D10B11 (antibody, V domains shown, Murine hybridoma antibody purified on protein G) VH: QVQLQQSGPELVKPGASVKISCKASGYSFTSYYIHWVKQRPGQGLEWIGWIYPGSGNTKYNEKFKGKATLTADTSSSTADMQLSSLTSEDSAVYYCARRGDWYFDVWGTGTTVTVSS VL: DIVMSQSPSSLVVSVGEKVTMNCKSSQSLLFSGNQKSSLAWYQQKPGQSPKLLIYWASTRESGVPDRFTGSGSGTDFTLIISTVKAEDLAVYSCQQYYSYPLTFGAGTKLELK    21.9

The measurements presented in this section are drawn from patent US20220017615A1.
